System: Escherichia coli TOP10;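 note: peptides expressed intracellularly from a pBAD plasmid library in pooled LB shake-flask culture, induced with 0.3% L-arabinose, DNA abundance read by NGS, three biological replicates, DESeq2 with apeglm shrinkage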
Experiment description: shrunken log2 fold change of peptide-encoding DNA abundance (4.5 h post-induction vs induction); higher = less antimicrobial activity (less host growth inhibition)
Protocol conditions: time post-induction: 4.5 h; library: site-saturation at positions 5, 18, 19, 20
shrunken log2 fold change: recorded values
Experimental endpoint: shrunken log2 fold change

RRIRQRPPRLPRPRPRPCSKPRP ... -0.18
RRIRGRPPRLPRPRPRPEWPPRP ... 1.13
RRIRFRPPRLPRPRPRPPYLPRP ... -0.465
RRIRIRPPRLPRPRPRPKMQPRP ... -0.293
RRIRMRPPRLPRPRPRPAMCPRP ... 0.124
RRIRERPPRLPRPRPRPDEIPRP ... -0.111
RRIRWRPPRLPRPRPRPPHSPRP ... 0.218
RRIRPRPPRLPRPRPRPHDSPRP ... -0.134
RRIRKRPPRLPRPRPRPSWDPRP ... -0.164
RRIRSRPPRLPRPRPRPMAKPRP ... 0.206
RRIRPRPPRLPRPRPRPQWWPRP ... 0.111
RRIRGRPPRLPRPRPRPTTTPRP ... 1.07
RRIRGRPPRLPRPRPRPKHPPRP ... 0.608
RRIRWRPPRLPRPRPRPHVEPRP ... -0.042
RRIRTRPPRLPRPRPRPARCPRP ... 0.324
